System: TYK2 (Homo sapiens, UniProt P29597)
Construct: JAK1 (aa 850-1154) and TYK2 (aa 871-1187) are expressed with an N-terminally fused GST-tag; GST (N)
Sequence (P29597 871-1187): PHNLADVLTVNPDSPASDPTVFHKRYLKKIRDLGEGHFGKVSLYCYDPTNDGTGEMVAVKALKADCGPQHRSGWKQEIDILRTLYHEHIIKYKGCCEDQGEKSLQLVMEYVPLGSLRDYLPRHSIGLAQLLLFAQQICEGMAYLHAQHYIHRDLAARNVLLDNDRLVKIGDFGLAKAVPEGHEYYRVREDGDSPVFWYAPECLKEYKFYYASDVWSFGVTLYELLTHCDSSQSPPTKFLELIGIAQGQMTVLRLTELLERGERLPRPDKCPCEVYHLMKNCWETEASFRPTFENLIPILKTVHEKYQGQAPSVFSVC
Procedure Details: JAK kinase assay (HTRF, phosphorylation of synthetic peptide), TYK2
Applied Conditions: catalytic domain, ATP at Km (13 μM); read-out: TYK2 kinase inhibitory activity (EC50)
pEC50: −log10 of the molar value.
Below, each of the molecules is paired with its reported pEC50 value.

[[record]]
molecule = "CN(CC1CCS(=O)(=O)C1)S(=O)(=O)N1CCN(c2ncnc3[nH]ccc23)CC12CC2 (stereo not shown)"
assay_endpoint = "pEC50"
test_value = "6.30 to 7.00"

[[record]]
molecule = "N#CCCCN(CCCC#N)S(=O)(=O)N1CCN(c2ncnc3[nH]ccc23)CC12CC2"
assay_endpoint = "pEC50"
test_value = "6.30 to 7.00"

[[record]]
molecule = "CC(C)N(CC#N)S(=O)(=O)N1CCN(c2ncnc3[nH]ccc23)CC12CC2"
assay_endpoint = "pEC50"
test_value = "< 6.30"

[[record]]
molecule = "CN(CC1CCN(S(=O)(=O)CCCC#N)C1)S(=O)(=O)N1CCN(c2ncnc3[nH]ccc23)CC12CC2 (stereo not shown)"
assay_endpoint = "pEC50"
test_value = "6.30 to 7.00"


Prompt: TYK2 (Homo sapiens, UniProt P29597) / pEC50 / CN(Cc1ccc(S(N)(=O)=O)cc1)S(=O)(=O)N1CCN(c2ncnc3[nH]ccc23)CC12CC2 : value?
Response: > 7.00

Prompt: Do the same for N#CCCCN(CCCc1ccccc1)S(=O)(=O)N1CCN(c2ncnc3[nH]ccc23)CC12CC2 please
Response: < 6.30

----------
Listing: pEC50 of selected molecules
System: TYK2 (Homo sapiens)
Construct: JAK1 (aa 850-1154) and TYK2 (aa 871-1187) are expressed with an N-terminally fused GST-tag; GST (N)
Procedure Details: JAK kinase assay (HTRF, phosphorylation of synthetic peptide), TYK2
Applied Conditions: catalytic domain, ATP at Km (13 μM); read-out: TYK2 kinase inhibitory activity (EC50)
pEC50: −log10 of the molar value.

[[record]]
molecule = "CC(C#N)N(C1CCC1)S(=O)(=O)N1CCN(c2ncnc3[nH]ccc23)CC12CC2 (centres unmarked)"
assay_endpoint = "pEC50"
test_value = "6.30 to 7.00"


Prompt: I would be grateful if you could share the reported pEC50 for CN(C)S(=O)(=O)c1ccc(CN(C)S(=O)(=O)N2CCN(c3ncnc4[nH]ccc34)CC23CC3)o1 .
Response: 6.30 to 7.00

Prompt: What about CCCN(CCc1ccccc1)S(=O)(=O)N1CCN(c2ncnc3[nH]ccc23)CC12CC2 ?
Response: < 6.30

Prompt: Also CN(CC1CCN(S(=O)(=O)CC2CC2)C1)S(=O)(=O)N1CCN(c2ncnc3[nH]ccc23)CC12CC2 (centres unmarked) , if possible.
Response: 6.30 to 7.00

Prompt: And for CN(C1CCC1)S(=O)(=O)N1CCN(c2ncnc3[nH]ccc23)CC12CC2 ?
Response: 6.30 to 7.00

Prompt: Request: CN(C[C@@H]1CCCN1)S(=O)(=O)N1CCN(c2ncnc3[nH]ccc23)CC12CC2
Response: < 6.30

Prompt: Can you handle CN(CCCc1cccc(C#N)c1)S(=O)(=O)N1CCN(c2ncnc3[nH]ccc23)CC12CC2 next?
Response: < 6.30

Prompt: Then what about the molecule CN(C[C@H]1CCCN1C(=O)CCO)S(=O)(=O)N1CCN(c2ncnc3[nH]ccc23)CC12CC2 ?
Response: 6.30 to 7.00

----------
System: TYK2 (Homo sapiens)
Construct: JAK1 (aa 850-1154) and TYK2 (aa 871-1187) are expressed with an N-terminally fused GST-tag; GST (N); purchased Carna Biosciences, Inc; host or cells: baculovirus expression system
Procedure Details: JAK kinase assay (HTRF, phosphorylation of synthetic peptide), TYK2
Assay type: biochemical
Applied Conditions: catalytic domain, ATP at Km (13 μM); read-out: TYK2 kinase inhibitory activity (EC50)
pEC50: −log10 of the molar value.
Attribute: pEC50

Below, 5 molecules whose answers are already recorded.
[[record]]
molecule = "CN(CCC1CCCC1)S(=O)(=O)N1CCN(c2ncnc3[nH]ccc23)CC12CC2 [Example 74]"
test_value = "6.30 to 7.00"

[[record]]
molecule = "O=S(=O)(N(CCO)CCO)N1CCN(c2ncnc3[nH]ccc23)CC12CC2 [Example 54]"
test_value = "6.30 to 7.00"

[[record]]
molecule = "CN(Cc1ccccc1F)S(=O)(=O)N1CCN(c2ncnc3[nH]ccc23)CC12CC2 [Example 77]"
test_value = "6.30 to 7.00"

[[record]]
molecule = "O=S(=O)(NC1CCCC1)N1CCN(c2ncnc3[nH]ccc23)CC12CC2 [Example 144]"
test_value = "6.30 to 7.00"

[[record]]
molecule = "CN(CC1CC1(F)F)S(=O)(=O)N1CCN(c2ncnc3[nH]ccc23)CC12CC2 (stereo not shown) [Example 86]"
test_value = "> 7.00"


Prompt: Given CN(CCn1cccn1)S(=O)(=O)N1CCN(c2ncnc3[nH]ccc23)CC12CC2 [Example 66] , state its recorded pEC50.
Response: 6.30 to 7.00

----------
Reported pEC50 values are given for each entry in this list.
System: JAK3 (Homo sapiens, UniProt P52333)
Construct: All four purified enzymes contain only the catalytic domain; His (N)
Sequence (P52333 822-1111 limits assumed): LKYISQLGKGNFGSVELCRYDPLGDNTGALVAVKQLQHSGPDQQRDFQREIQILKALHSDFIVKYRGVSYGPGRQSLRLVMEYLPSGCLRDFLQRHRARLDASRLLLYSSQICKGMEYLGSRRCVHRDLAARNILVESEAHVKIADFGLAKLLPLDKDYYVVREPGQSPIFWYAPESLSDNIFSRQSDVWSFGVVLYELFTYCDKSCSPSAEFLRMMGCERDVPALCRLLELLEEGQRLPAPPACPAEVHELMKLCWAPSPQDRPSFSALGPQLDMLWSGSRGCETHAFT
Procedure Details: JAK kinase assay (HTRF, phosphorylation of synthetic peptide), JAK3
Applied Conditions: catalytic domain, ATP at Km (2 μM); read-out: JAK3 kinase inhibitory activity (EC50)
pEC50: −log10 of the molar value.

Sample records with pEC50:
[[record]]
compound = "CN(C(=O)C1CCCS(=O)(=O)C1)S(=O)(=O)N1CCN(c2ncnc3[nH]ccc23)CC12CC2 (stereo not shown) [Example 140]"
assay_endpoint = "pEC50"
test_value = "6.30 to 7.00"

[[record]]
compound = "CN(CC1CCC1)S(=O)(=O)N1CCN(c2ncnc3[nH]ccc23)CC12CC2 [Example 60]"
assay_endpoint = "pEC50"
test_value = "> 7.00"

[[record]]
compound = "CN(C1CCC1)S(=O)(=O)N1CCN(c2ncnc3[nH]ccc23)CC12CC2 [Example 98]"
assay_endpoint = "pEC50"
test_value = "6.30 to 7.00"

[[record]]
compound = "CN(CC1CC(=O)C1)S(=O)(=O)N1CCN(c2ncnc3[nH]ccc23)CC12CC2 [Example 88]"
assay_endpoint = "pEC50"
test_value = "6.30 to 7.00"

[[record]]
compound = "CC(C)CCN(C)S(=O)(=O)N1CCN(c2ncnc3[nH]ccc23)CC12CC2 [Example 27]"
assay_endpoint = "pEC50"
test_value = "> 7.00"

[[record]]
compound = "CN(C1CN(S(C)(=O)=O)C1)S(=O)(=O)N1CCN(c2ncnc3[nH]ccc23)CC12CC2 [Example 180]"
assay_endpoint = "pEC50"
test_value = "> 7.00"

[[record]]
compound = "CN(Cc1ccccc1F)S(=O)(=O)N1CCN(c2ncnc3[nH]ccc23)CC12CC2 [Example 77]"
assay_endpoint = "pEC50"
test_value = "6.30 to 7.00"

[[record]]
compound = "O=S(=O)(N(CCn1ccnc1)C1CCC1)N1CCN(c2ncnc3[nH]ccc23)CC12CC2 [Example 104]"
assay_endpoint = "pEC50"
test_value = "6.30 to 7.00"

[[record]]
compound = "CN(CC1CCCCC1)S(=O)(=O)N1CCN(c2ncnc3[nH]ccc23)CC12CC2 [Example 15]"
assay_endpoint = "pEC50"
test_value = "> 7.00"

[[record]]
compound = "CC(C)(C)OC(=O)N(CCCS(C)(=O)=O)S(=O)(=O)N1CCN(c2ncnc3[nH]ccc23)CC12CC2 [Example 196]"
assay_endpoint = "pEC50"
test_value = "< 6.30"


Prompt: May I ask what pEC50 has been recorded for CN(CC1CCCNC1)S(=O)(=O)N1CCN(c2ncnc3[nH]ccc23)CC12CC2 (stereo not shown) [Int 27] ?
Response: < 6.30

Prompt: How about this compound: N#CCCN(C1CC1)S(=O)(=O)N1CCN(c2ncnc3[nH]ccc23)CC12CC2 [Example 41]
Response: > 7.00

Prompt: What do you have for COc1ccc(CCN(C)S(=O)(=O)N2CCN(c3ncnc4[nH]ccc34)CC23CC3)cc1OC [Example 51] ?
Response: > 7.00

Prompt: Same for O=S(=O)(N(CCO)CCOc1ccccc1)N1CCN(c2ncnc3[nH]ccc23)CC12CC2 [Example 111]
Response: 6.30 to 7.00

Prompt: Field entry: CN(CC1CCN(C(=O)CCO)CC1)S(=O)(=O)N1CCN(c2ncnc3[nH]ccc23)CC12CC2 [Example 151]
Response: 6.30 to 7.00

Prompt: Now consider CN(CC1CCCN(C(=O)CCO)C1)S(=O)(=O)N1CCN(c2ncnc3[nH]ccc23)CC12CC2 (stereo not shown) [Example 154] and answer again.
Response: > 7.00

Prompt: Field entry: CN(CC1CCS(=O)(=O)C1)S(=O)(=O)N1CCN(c2ncnc3[nH]ccc23)CC12CC2 (stereo not shown) [Example 165]
Response: > 7.00

Prompt: Then this compound: CN(CC1CCN(S(=O)(=O)CCCC#N)C1)S(=O)(=O)N1CCN(c2ncnc3[nH]ccc23)CC12CC2 (stereo not shown) [Example 121]
Response: > 7.00

Prompt: What about this compound? CN(CC1CCNC1)S(=O)(=O)N1CCN(c2ncnc3[nH]ccc23)CC12CC2 (stereo not shown) [Int 25]
Response: 6.30 to 7.00

Prompt: Another compound to look at: CN(C[C@H]1CCCN1C(=O)CO)S(=O)(=O)N1CCN(c2ncnc3[nH]ccc23)CC12CC2 [Example 185]
Response: > 7.00

Prompt: Now this one: O=S(=O)(NC1CCC1)N1CCN(c2ncnc3[nH]ccc23)CC12CC2 [Int 30]
Response: 6.30 to 7.00
